- Target: Angiotensin II receptor (Rattus norvegicus, UniProt P29089+P25095+P35351)
- Assay: Inhibition of [125I]- AII binding to rat uterine membrane angiotensin II receptor
Measurement Label: IC50 (nM)

{"Molecule": "CCCCc1nc(C(F)(F)c2ccc(-c3ccccc3-c3nn[nH]n3)cc2)n(CCCC)n1", "IC50 (nM)": 710}
{"Molecule": "CCCCc1nc(Cc2ccc(-c3ccccc3-c3nn[nH]n3)cc2)n(CCCC)n1", "IC50 (nM)": 16}
{"Molecule": "CCCCc1nc(Cc2ccc(-c3ccccc3C(=O)O)cc2)n(CCCC)n1", "IC50 (nM)": 240}

[A] CCCCc1nc(C(=O)c2ccc(-c3ccccc3-c3nn[nH]n3)cc2)n(CCCC)n1
[B] CCCCc1nc(C(O)c2ccc(-c3ccccc3-c3nn[nH]n3)cc2)n(CCCC)n1 (centres undefined)
[C] CCCCn1nc(CCc2ccccc2)nc1Cc1ccc(-c2ccccc2-c2nn[nH]n2)cc1
[D] CCCCn1nc(C(F)(F)CCC)nc1Cc1ccc(-c2ccccc2-c2nn[nH]n2)cc1
[E] CCCCc1nc(Cc2ccc(-c3ccccc3-c3nnn(C(c4ccccc4)(c4ccccc4)c4ccccc4)n3)cc2)n(CCCC)n1
Query: Order the 5 molecules from highest to lowest IC50. Put the labels in the requested order and list them out.
Response: A, B, E, D, C
